Molecular target: Histamine H3 receptor (Homo sapiens)
Assay: Antagonist activity at human histamine H3 receptor in human T-REx-293 cells assessed as inhibition of basal GTPgammaS binding at 10 uM after 90 mins by scintillation counting analysis relative to control
Format: functional, cell-based
Conditions: HEK293
attribute measured: inhibition (%)
Reply numerically in %, unit not repeated.

Below, 4 molecules whose answers are already recorded.
molecule	inhibition, %
CC(=O)N1CCN(C(=O)Nc2ccc(N3CCC(N4CCCC4C)C3)c(C)c2)CC1 (configuration not stated)	115
CC1CCCN1C1CCN(c2ccc(NC(=O)Nc3cc(Cl)cc(Cl)c3)cc2)C1 (configuration not stated)	103
CC1CCCN1C1CCN(c2ccc(NC(=O)N3CCN(c4ccccc4)CC3)cc2)C1 (configuration not stated)	122
CC1CCCN1C1CCN(c2ccc(NC(=O)N3CCCCC3)cc2)C1 (configuration not stated)	108

Inquiry: // returns reported inhibition for input `CCN(CC)CCCOc1ccc(NC(=O)Nc2ccc(F)cc2F)cc1`
Reply text: 124

Inquiry: // returns reported inhibition for input CC1CCCN1C1CCN(c2ccc(NC(=O)NCc3cc(Cl)cc(Cl)c3)cc2)C1 (configuration not stated)
Reply text: 144

Inquiry: // returns reported inhibition for input `O=C(Nc1ccc(OCCCN2CCCCC2)cc1)Nc1cc(Cl)cc(Cl)c1`
Reply text: 125

Inquiry: // returns reported inhibition for input CC(=O)N1CCN(C(=O)Nc2ccc(N3CCC(N4CCCC4C)C3)cc2)CC1 (configuration not stated)
Reply text: 127

Inquiry: // returns reported inhibition for input Cc1cc(N2CCC(N3CCCC3C)C2)ccc1NC(=O)NC1CCCCC1 (configuration not stated)
Reply text: 110

---

Assay: Drug metabolism in mouse liver microsomes
Type: ADME, Microsome
Settings: read-out: Drug metabolism
attribute measured: metabolised (%)
Reply numerically in %, unit not repeated.

Inquiry: // returns reported metabolised for input `Cc1c(Cl)cc(NC(=O)Nc2ccc(OCCCN3CCCCC3)cc2)cc1Cl`
Reply text: 34

---

Molecular target: hERG (KCNH2) (Homo sapiens, UniProt Q12809)
Sequence (Q12809 whole entry): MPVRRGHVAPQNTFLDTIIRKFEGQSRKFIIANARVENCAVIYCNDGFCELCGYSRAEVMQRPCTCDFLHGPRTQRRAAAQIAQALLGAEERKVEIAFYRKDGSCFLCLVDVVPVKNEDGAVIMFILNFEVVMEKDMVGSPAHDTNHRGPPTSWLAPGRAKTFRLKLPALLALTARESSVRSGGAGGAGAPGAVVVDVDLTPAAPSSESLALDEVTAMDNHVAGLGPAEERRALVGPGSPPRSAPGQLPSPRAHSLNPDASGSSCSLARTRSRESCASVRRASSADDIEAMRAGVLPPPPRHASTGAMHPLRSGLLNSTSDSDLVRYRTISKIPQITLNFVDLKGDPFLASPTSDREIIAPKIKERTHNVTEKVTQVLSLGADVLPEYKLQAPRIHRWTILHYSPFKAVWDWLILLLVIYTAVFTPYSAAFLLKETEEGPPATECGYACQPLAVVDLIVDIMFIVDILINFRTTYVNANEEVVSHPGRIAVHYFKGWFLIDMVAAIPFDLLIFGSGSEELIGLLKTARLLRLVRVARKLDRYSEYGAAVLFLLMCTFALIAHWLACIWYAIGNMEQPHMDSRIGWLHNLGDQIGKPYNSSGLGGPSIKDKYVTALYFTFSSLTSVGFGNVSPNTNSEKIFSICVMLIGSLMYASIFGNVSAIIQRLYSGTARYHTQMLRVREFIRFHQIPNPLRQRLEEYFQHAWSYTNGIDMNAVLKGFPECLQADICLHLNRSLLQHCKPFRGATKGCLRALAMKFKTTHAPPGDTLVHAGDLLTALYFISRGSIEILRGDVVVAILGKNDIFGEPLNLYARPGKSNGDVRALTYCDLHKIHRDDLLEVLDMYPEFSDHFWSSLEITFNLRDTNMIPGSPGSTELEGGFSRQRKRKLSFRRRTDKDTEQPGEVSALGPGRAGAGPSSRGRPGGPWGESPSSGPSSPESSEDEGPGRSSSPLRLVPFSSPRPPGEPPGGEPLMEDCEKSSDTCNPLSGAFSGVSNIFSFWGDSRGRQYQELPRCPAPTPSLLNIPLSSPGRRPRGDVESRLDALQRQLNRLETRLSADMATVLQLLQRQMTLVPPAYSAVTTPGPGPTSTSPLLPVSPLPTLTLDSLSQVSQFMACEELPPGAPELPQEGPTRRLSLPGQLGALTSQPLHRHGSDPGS
Assay: Inhibition of human ERG at 10 uM relative to control
attribute measured: inhibition at 10 µM (%)
Reply numerically in %, unit not repeated.

Inquiry: // returns reported inhibition at 10 µM for input Cc1cc(N2CCC(N3CCCC3C)C2)ccc1NC(=O)Nc1cc(Cl)cc(Cl)c1 (stereo unspecified)
Reply text: 74

---

Target: Histamine receptor H3 (Macaca mulatta, UniProt Q865E1)
Sequence (Q865E1 whole entry): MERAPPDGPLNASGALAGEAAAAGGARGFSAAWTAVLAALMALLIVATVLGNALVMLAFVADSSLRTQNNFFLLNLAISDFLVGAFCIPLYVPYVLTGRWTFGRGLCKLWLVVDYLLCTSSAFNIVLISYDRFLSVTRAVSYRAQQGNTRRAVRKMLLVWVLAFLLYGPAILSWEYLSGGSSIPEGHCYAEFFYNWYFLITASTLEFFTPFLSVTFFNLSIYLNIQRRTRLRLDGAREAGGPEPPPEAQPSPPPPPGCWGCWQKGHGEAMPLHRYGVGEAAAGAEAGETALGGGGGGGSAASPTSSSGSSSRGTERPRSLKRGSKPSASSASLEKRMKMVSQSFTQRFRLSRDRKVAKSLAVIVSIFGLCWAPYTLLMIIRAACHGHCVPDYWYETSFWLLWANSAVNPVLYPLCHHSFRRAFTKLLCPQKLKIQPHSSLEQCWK
Assay: Displacement of [3H]N-alpha-methylhistamine from cloned rhesus monkey histamine H3 receptor transfected in CHO cells after 1 hr by scintillation counting analysis
Doc: threshold 7 nM (exclusive). Items with Ki beneath it return met; others return not met.

Inquiry: Please determine if `O=C(Nc1ccc(OCCCN2CCCCC2)cc1)Nc1cc(Cl)cc(Cl)c1` is below 7 nM in terms of Ki.
Reply text: met

---

Each record here notes measured inhibition.
Molecular target: Histamine H3 receptor (Homo sapiens)
Assay: Antagonist activity at human histamine H3 receptor in human T-REx-293 cells assessed as inhibition of basal GTPgammaS binding at 10 uM after 90 mins by scintillation counting analysis relative to control
Assay type: functional, cell-based
Conditions: HEK293
Reply numerically in %, unit not repeated.

compound	attribute measured	val
Cc1cccc(NC(=O)Nc2ccc(OCCCN(C)C)cc2)c1C	inhibition	125
Cc1cccc(NC(=O)Nc2ccc(OCCN(C)C)cc2)c1C	inhibition	94
CCN(CC)CCOc1ccc(NC(=O)Nc2c(Cl)cccc2Cl)cc1	inhibition	116
O=C(Nc1ccc(OCCCN2CCCCC2)cc1)Nc1ccc(F)cc1F	inhibition	128
Cc1cc(NC(=O)Nc2ccc(Oc3ccccc3)cc2)ccc1N1CCC(N2CCCC2C)C1 (stereo not given)	inhibition	126
Cc1cc(N2CCC(N3CCCC3C)C2)ccc1NC(=O)Nc1cc(Cl)cc(Cl)c1 (stereo not given)	inhibition	126

Inquiry: Give the reported inhibition for Cc1cc(NC(=O)NCc2cc(Cl)cc(Cl)c2)ccc1N1CCC(N2CCCC2C)C1 (stereo not given) (system: Histamine H3 receptor (Homo sapiens)).
Reply text: 130

Inquiry: Give the reported inhibition for `O=C(Nc1ccc(Cl)cc1)Nc1ccc(OCCCN2CCCCC2)cc1` (system: Histamine H3 receptor (Homo sapiens)).
Reply text: 119

Inquiry: Give the reported inhibition for CC(=O)N(C)C1CCN(C(=O)Nc2ccc(N3CCC(N4CCCC4C)C3)c(C)c2)C1 (stereo not given) (system: Histamine H3 receptor (Homo sapiens)).
Reply text: 118

Inquiry: Give the reported inhibition for `CCN(CC)CCOc1ccc(NC(=S)Nc2ccc(OCC(C)C)cc2)cc1` (system: Histamine H3 receptor (Homo sapiens)).
Reply text: 129

---

Target: Histamine H3 receptor (Homo sapiens)
Assay: Antagonist activity at human histamine H3 receptor expressed in HEK293 cells assessed as inhibition of calcium mobilization by FLIPR assay
Each record here notes measured log10 IC50.
Answers are given as log10 of IC50 in nM.

Inquiry: Give the reported log10 IC50 for `CCOc1ccc(C)cc1NC(=O)Nc1ccc(OCCN(CC)CC)cc1` (system: Histamine H3 receptor (Homo sapiens)).
Reply text: 0.96

Inquiry: Give the reported log10 IC50 for Cc1cc(NC(=O)NCc2cccs2)ccc1N1CCC(N2CCCC2C)C1 (stereo not given) (system: Histamine H3 receptor (Homo sapiens)).
Reply text: -0.70

Inquiry: Give the reported log10 IC50 for `CN(C)CCOc1ccc(NC(=O)Nc2ccc(Cl)cc2)cc1` (system: Histamine H3 receptor (Homo sapiens)).
Reply text: 1.21

Inquiry: Give the reported log10 IC50 for CC(=O)N(C)C1CCN(C(=O)Nc2ccc(N3CCC(N4CCCC4C)C3)c(C)c2)C1 (stereo not given) (system: Histamine H3 receptor (Homo sapiens)).
Reply text: 0.04

Inquiry: Give the reported log10 IC50 for `CCN(CC)CCOc1ccc(NC(=O)Nc2ccc(F)cc2F)cc1` (system: Histamine H3 receptor (Homo sapiens)).
Reply text: 2.05

---

Each record here notes measured Ki.
Molecular target: Histamine H3 receptor (Rattus norvegicus, UniProt Q9QYN8)
Sequence (Q9QYN8 whole entry): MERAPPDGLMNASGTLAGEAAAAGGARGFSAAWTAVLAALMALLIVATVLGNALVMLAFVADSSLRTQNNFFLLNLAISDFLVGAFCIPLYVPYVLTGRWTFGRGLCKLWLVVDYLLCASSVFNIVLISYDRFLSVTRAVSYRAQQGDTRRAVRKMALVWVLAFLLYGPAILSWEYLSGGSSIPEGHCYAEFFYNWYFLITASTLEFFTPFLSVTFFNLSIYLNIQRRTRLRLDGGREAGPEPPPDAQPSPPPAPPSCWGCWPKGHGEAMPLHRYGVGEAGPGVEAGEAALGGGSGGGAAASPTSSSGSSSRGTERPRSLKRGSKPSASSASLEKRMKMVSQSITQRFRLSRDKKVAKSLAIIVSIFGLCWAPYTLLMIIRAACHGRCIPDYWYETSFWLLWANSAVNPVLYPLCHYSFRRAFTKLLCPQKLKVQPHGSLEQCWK
Experiment: Displacement of [3H]N-alpha-methylhistamine from cloned rat histamine H3 receptor transfected in CHO cells after 1 hr by scintillation counting analysis
Reply numerically in µM, unit not repeated.

Below, 2 molecules whose answers are already recorded.
smiles representation	attribute measured	val
Cc1c(Cl)cc(NC(=O)Nc2ccc(OCCCN3CCCCC3)cc2)cc1Cl	Ki	0.135
CCN(CC)CCOc1ccc(NC(=S)Nc2ccc(OCC(C)C)cc2)cc1	Ki	0.0399

Alright, here's another molecule for you.
Inquiry: // returns reported Ki for input `O=C(Nc1ccc(OCCCN2CCCCC2)cc1)Nc1ccc(F)cc1F`
Reply text: 0.033

---

Biological target: Histamine H3 receptor (Homo sapiens)
Assay: Displacement of [3H]N-alpha-methylhistamine from cloned human histamine H3 receptor transfected in CHO cells after 1 hr by scintillation counting analysis
attribute measured: Ki (nM)
Reply numerically in nM, unit not repeated.

Below, 2 compounds whose answers are already recorded.
smiles representation	val
O=C(Nc1ccc(OCCCN2CCCCC2)cc1)Nc1ccc(F)cc1F	52
Cc1c(Cl)cc(NC(=O)Nc2ccc(OCCCN3CCCCC3)cc2)cc1Cl	112

Alright, here's another compound for you.
Inquiry: // returns reported Ki for input `CCN(CC)CCOc1ccc(NC(=S)Nc2ccc(OCC(C)C)cc2)cc1`
Reply text: 16.8

---

Each record here notes measured inhibition.
Target: UniProtKB Q9Y5N1
Assay: Antagonist activity at human histamine H3 receptor in human T-REx-293 cells assessed as inhibition of basal GTPgammaS binding at 10 uM after 90 mins by scintillation counting analysis relative to control
Type: functional, cell-based
Details: HEK293
Reply numerically in %, unit not repeated.

Below, 5 compounds whose answers are already recorded.
compound	attribute measured	val
O=C(Nc1ccc(OCCN2CCCCC2)cc1)Nc1ccc(F)cc1F	inhibition	115
CN(C)CCc1ccc(NC(=O)Nc2ccc(CCN(C)C)cc2)cc1	inhibition	94.7
Cc1cc(NC(=O)NCc2cccs2)ccc1N1CCC(N2CCCC2C)C1 (stereo unspecified)	inhibition	125
CC(=O)N(C)C1CCN(C(=O)Nc2ccc(N3CCC(N4CCCC4C)C3)cc2)C1 (stereo unspecified)	inhibition	109
CCN(CC)CCOc1ccc(NC(=O)Nc2ccc(F)cc2F)cc1	inhibition	117

Alright, here's another compound for you.
Inquiry: // returns reported inhibition for input `CN(C)CCOc1ccc(NC(=O)Nc2ccc(Cl)cc2)cc1`
Reply text: 99

---

Molecular target: Histamine H3 receptor (Homo sapiens, UniProt Q9Y5N1)
Sequence (Q9Y5N1 whole entry): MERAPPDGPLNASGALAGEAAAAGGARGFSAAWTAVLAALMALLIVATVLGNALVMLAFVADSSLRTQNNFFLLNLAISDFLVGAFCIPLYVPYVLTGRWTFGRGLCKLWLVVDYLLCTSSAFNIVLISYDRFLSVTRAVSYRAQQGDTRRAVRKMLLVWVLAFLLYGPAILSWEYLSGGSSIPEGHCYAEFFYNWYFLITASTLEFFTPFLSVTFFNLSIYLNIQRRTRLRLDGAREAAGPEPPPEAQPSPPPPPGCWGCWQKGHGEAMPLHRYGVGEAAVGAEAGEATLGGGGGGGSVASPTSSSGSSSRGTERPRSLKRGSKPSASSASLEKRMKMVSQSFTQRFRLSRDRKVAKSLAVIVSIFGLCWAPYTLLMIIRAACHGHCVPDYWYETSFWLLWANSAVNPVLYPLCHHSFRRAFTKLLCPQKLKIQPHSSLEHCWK
Assay: Antagonist activity at human histamine H3 receptor in human T-REx-293 cells assessed as inhibition of basal GTPgammaS binding at 10 uM after 90 mins by scintillation counting analysis relative to control
Format: functional, cell-based
Conditions: HEK293
Each record here notes measured inhibition.
Reply numerically in %, unit not repeated.

Below, 10 compounds whose answers are already recorded.
compound	unit string	inhibition
Cc1cc(NC(=O)Nc2cc(Cl)cc(Cl)c2)ccc1N1CCC(N2CCCC2C)C1 (stereo not drawn)	%	103
Cc1cc(N2CCC(N3CCCC3C)C2)ccc1NC(=O)N1CCN(C)CC1 (stereo not drawn)	%	120
Cc1c(Cl)cc(NC(=O)Nc2ccc(OCCCN3CCCCC3)cc2)cc1Cl	%	133
CC1CCCN1C1CCN(c2ccc(NC(=O)Nc3ccc(Oc4ccccc4)cc3)cc2)C1 (stereo not drawn)	%	113
CCN(CC)CCOc1ccc(NC(=O)Nc2ccc(Cl)cc2Cl)cc1	%	118
CC1CCCN1C1CCN(c2ccc(NC(=O)N3CCN(C)CC3)cc2)C1 (stereo not drawn)	%	132
CC1CCCN1C1CCN(c2ccc(NC(=O)NCc3cccs3)cc2)C1 (stereo not drawn)	%	129
O=C(Nc1ccc(Cl)cc1)Nc1ccc(OCCN2CCCCC2)cc1	%	105
Cc1cc(NC(=O)N2CCN(C)CC2)ccc1N1CCC(N2CCCC2C)C1 (stereo not drawn)	%	118
CCOc1ccc(C)cc1NC(=O)Nc1ccc(OCCN(CC)CC)cc1	%	107

Inquiry: Give the reported inhibition for `CN(C)CCOc1ccc(NC(=O)Nc2ccc(F)cc2F)cc1` (system: Histamine H3 receptor (Homo sapiens, UniProt Q9Y5N1)).
Reply text: 102

Inquiry: Give the reported inhibition for Cc1cc(NC(=O)NC2CCCCC2)ccc1N1CCC(N2CCCC2C)C1 (stereo not drawn) (system: Histamine H3 receptor (Homo sapiens, UniProt Q9Y5N1)).
Reply text: 130

Inquiry: Give the reported inhibition for CC1CCCN1C1CCN(c2ccc(NC(=O)NC3CCCCC3)cc2)C1 (stereo not drawn) (system: Histamine H3 receptor (Homo sapiens, UniProt Q9Y5N1)).
Reply text: 122
